B1: PLK2 (parent)
chain: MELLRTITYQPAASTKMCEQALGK

Variants of: B1
Assay: protein stability index of a GFP-peptide fusion (GPS, HEK-293T) (PSI 1-6); higher = more stable;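 note: lentivirally expressed fusions sorted by FACS into six bins by GFP to DsRed ratio, PSI derived from sequencing read proportions per bin multiplied by bin number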
Conditions: c terminus: a fixed tail appended
Quick rule: protein stability index of at least 2 means satisfied, below that means not satisfied.

Changes: Y9A
Cat: satisfied
//
Changes: E2R
Cat: satisfied
//
Changes: I7W
Cat: satisfied
//
Changes: M1K
Cat: satisfied
//
Changes: A13W
Cat: not satisfied

stdin: # bool: protein stability index of "T6A" >= 2
stdout: not satisfied

stdin: For this variant, is measured protein stability index 2 or higher? "R5T"
stdout: satisfied

Origin of values: the supplement of paper PMC10567573
